Reference source: ChEMBL document CHEMBL1124694

The reader will find Ki measurements below, all made with Adenosine A2 receptor (Rattus norvegicus, UniProt P29276+P30543).
readout name: Ki (nM)

OC[C@H]1OC(n2cnc3c(NC4CCCC4)nc(Nc4ccccc4)nc32)[C@H](O)[C@@H]1O (some centres undefined) = 144

P. OC[C@H]1OC(n2cnc3c(NCCc4ccccc4)nc(NCCc4ccccc4)nc32)[C@H](O)[C@@H]1O (some centres undefined)
Q. Nc1nc(NCC(c2ccccc2)c2ccccc2)c2ncn(C3O[C@H](CO)[C@@H](O)[C@H]3O)c2n1 (some centres undefined)
R. OC[C@H]1OC(n2cnc3c(NCC(c4ccccc4)c4ccccc4)nc(Sc4ccccc4)nc32)[C@H](O)[C@@H]1O (some centres undefined)
INPUT: # rank_down: sort by Ki, max first Quick reminder: the answer is the labels in the order asked.
OUTPUT: P, R, Q

---

Target: Adenosine receptor A1 (Rattus norvegicus, UniProt P25099)
Sequence (P25099 whole entry): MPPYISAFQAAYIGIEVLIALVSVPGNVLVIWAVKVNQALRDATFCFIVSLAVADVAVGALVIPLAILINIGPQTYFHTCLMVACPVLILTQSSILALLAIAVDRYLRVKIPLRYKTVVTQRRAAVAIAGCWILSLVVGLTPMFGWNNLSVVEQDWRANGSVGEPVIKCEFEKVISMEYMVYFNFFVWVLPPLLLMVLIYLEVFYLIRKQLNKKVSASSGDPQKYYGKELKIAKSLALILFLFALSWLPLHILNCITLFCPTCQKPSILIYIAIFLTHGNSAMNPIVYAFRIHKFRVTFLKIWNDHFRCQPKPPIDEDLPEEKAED
readout name: Ki (nM)

Guide cases for Ki, answers given:
O=S(=O)(c1ccccc1)c1nc(NCc2cccc3ccccc23)c2ncn(C3O[C@H](CO)[C@@H](O)[C@H]3O)c2n1 (stereo partly specified) = 2000
Nc1nc(S(=O)(=O)c2ccccc2)nc2c1ncn2C1O[C@H](CO)[C@@H](O)[C@H]1O (stereo partly specified) = 2600

a. Nc1nc(NCC2c3ccccc3-c3ccccc32)c2ncn(C3O[C@H](CO)[C@@H](O)[C@H]3O)c2n1 (stereo partly specified)
b. COc1cc(OC)cc(C(CNc2nc(Nc3ccccc3)nc3c2ncn3C2O[C@H](CO)[C@@H](O)[C@H]2O)c2ccccc2)c1 (stereo partly specified)
c. OC[C@H]1OC(n2cnc3c(NCC(c4ccccc4)c4ccccc4)nc(Nc4ccccc4)nc32)[C@H](O)[C@@H]1O (stereo partly specified)
d. CC(Cc1ccccc1)Nc1nc(Sc2ccccc2)nc2c1ncn2C1O[C@H](CO)[C@@H](O)[C@H]1O (stereo partly specified)
INPUT: # rank_down: sort by Ki, max first Quick reminder: the answer is the labels in the order asked.
OUTPUT: b, c, d, a
(b: 9000 nM, c: 2700 nM, d: 210 nM, a: 18.5 nM)

---

The reader will find Ki measurements below, all made with Adenosine A2 receptor (Rattus norvegicus, UniProt P29276+P30543).
readout name: Ki (nM)

OC[C@H]1OC(n2cnc3c(NC4CCCC4)nc(Sc4ccccc4)nc32)[C@H](O)[C@@H]1O (some centres undefined) = 4000

P. OC[C@H]1OC(n2cnc3c(NCC4c5ccccc5-c5ccccc54)nc(Nc4ccccc4)nc32)[C@H](O)[C@@H]1O (some centres undefined)
Q. Nc1nc(NC2CCCCC2)c2ncn(C3O[C@H](CO)[C@@H](O)[C@H]3O)c2n1 (some centres undefined)
R. OC[C@H]1OC(n2cnc3c(NC4CC5CCC4C5)nc(Nc4ccccc4)nc32)[C@H](O)[C@@H]1O (some centres undefined)
INPUT: Please produce an ascending ranking of these compounds based on Ki. Quick reminder: the answer is the labels in the order asked.
OUTPUT: R, P, Q

---

Target: Adenosine A2 receptor (Rattus norvegicus, UniProt P29276+P30543)
readout name: Ki (nM)

Guide cases for Ki, answers given:
CC(Cc1ccccc1)Nc1nc(Nc2ccccc2)nc2c1ncn2C1O[C@H](CO)[C@@H](O)[C@H]1O (stereo partly drawn) = 240
OC[C@H]1OC(n2cnc3c(NCC(c4ccccc4)c4ccccc4)nc(Nc4ccccc4)nc32)[C@H](O)[C@@H]1O (stereo partly drawn) = 650
CC(Cc1ccccc1)Nc1nc(N)nc2c1ncn2C1O[C@H](CO)[C@@H](O)[C@H]1O (stereo partly drawn) = 1530
CC(Cc1ccccc1)Nc1nc(Sc2ccccc2)nc2c1ncn2C1O[C@H](CO)[C@@H](O)[C@H]1O (stereo partly drawn) = 1000
OC[C@H]1O[C@@H](n2cnc3c(NCc4cccc5ccccc45)nc(NC4CCCCC4)nc32)[C@H](O)[C@@H]1O = 10300

1. OC[C@H]1OC(n2cnc3c(NCc4cccc5ccccc45)nc(Sc4ccccc4)nc32)[C@H](O)[C@@H]1O (stereo partly drawn)
2. OC[C@H]1OC(n2cnc3c(NCc4cccc5ccccc45)nc(NCc4ccccc4)nc32)[C@H](O)[C@@H]1O (stereo partly drawn)
3. O=S(=O)(c1ccccc1)c1nc(NC2CCCCC2)c2ncn(C3O[C@H](CO)[C@@H](O)[C@H]3O)c2n1 (stereo partly drawn)
4. CC(O)CNc1nc(Nc2ccccc2)nc2c1ncn2C1O[C@H](CO)[C@@H](O)[C@H]1O (stereo partly drawn)
5. Nc1nc(NCC2c3ccccc3-c3ccccc32)c2ncn(C3O[C@H](CO)[C@@H](O)[C@H]3O)c2n1 (stereo partly drawn)
INPUT: # rank_down: sort by Ki, max first Quick reminder: the answer is the labels in the order asked.
OUTPUT: 3, 4, 1, 2, 5
